test system: Mtb mc^27092 pMV261-hadABC; assay: microbe, parasite or virus in culture; type: cell-based; conditions: Mycobacterium tuberculosis; mc^27092 pMV261-hadABC; REMA; read-out: Mtb MIC95
So basically: is MIC under 0.7 µg/mL? Then satisfied. Not under? Then not satisfied.

Compound: NNC(=O)c1ccncc1
Target desc: Mtb mc^27092 pMV261-hadABC
Class: satisfied
//
Compound: CC[C@@H](CO)NCCN[C@@H](CC)CO
Target desc: Mtb mc^27092 pMV261-hadABC
Class: not satisfied
//
Compound: CO[C@H]1/C=C/O[C@@]2(C)Oc3c(C)c(O)c4c(O)c(c(/C=N/N5CCN(C)CC5)c(O)c4c3C2=O)NC(=O)/C(C)=C\C=C\[C@H](C)[C@H](O)[C@@H](C)[C@@H](O)[C@@H](C)[C@H](OC(C)=O)[C@@H]1C
Target desc: Mtb mc^27092 pMV261-hadABC
Class: satisfied
//
Compound: CC(C)=CCC/C(C)=C/CNCCNC1C2CC3CC(C2)CC1C3 (centres unmarked)
Target desc: Mtb mc^27092 pMV261-hadABC
Class: satisfied
//
Compound: CC(C)CCOc1ccc(NC(=S)NC23CC4CC(CC(C4)C2)C3)cc1
Target desc: Mtb mc^27092 pMV261-hadABC
Class: not satisfied
//
Compound: CC(C)CCOc1ccc(NC(=S)NC2C3CC4CC(C3)CC2C4)cc1 (centres unmarked)
Target desc: Mtb mc^27092 pMV261-hadABC
Class: not satisfied

###

test system: Mtb mc^27092 pMV261-desA3; assay: microbe, parasite or virus in culture; format: cell-based; settings: Mycobacterium tuberculosis; mc^27092 pMV261-desA3; REMA; read-out: Mtb MIC95
Experimental endpoint: MIC (µg/mL)

Molecule: NNC(=O)c1ccncc1 [INH, isoniazid]
Experimental endpoint: MIC
Measured: 0.04
--
Molecule: CC(C)CCOc1ccc(NC(=S)NC23CC4CC(CC(C4)C2)C3)cc1 [Ad-1-ISO]
Experimental endpoint: MIC
Measured: 1.07
--
Molecule: CC[C@@H](CO)NCCN[C@@H](CC)CO [EMB, Ethambutol]
Experimental endpoint: MIC
Measured: 2.95
--
Molecule: CC(C)CCOc1ccc(NC(=S)Nc2ccc(OCCC(C)C)cc2)cc1 [ISO, 4,4′-diisoamyloxydiphenylthiourea]
Experimental endpoint: MIC
Measured: 0.26
--
Molecule: CO[C@H]1/C=C/O[C@@]2(C)Oc3c(C)c(O)c4c(O)c(c(/C=N/N5CCN(C)CC5)c(O)c4c3C2=O)NC(=O)/C(C)=C\C=C\[C@H](C)[C@H](O)[C@@H](C)[C@@H](O)[C@@H](C)[C@H](OC(C)=O)[C@@H]1C [RIF, rifampicin]
Experimental endpoint: MIC
Measured: 0.06
--
Molecule: CC(C)CCOc1ccc(NC(=S)NC2C3CC4CC(C3)CC2C4)cc1 (stereo not drawn) [Ad-2-ISO]
Experimental endpoint: MIC
Measured: 2.93

###

test system: Mtb mc^28247 pMV261; assay: microbe, parasite or virus in culture; format: cell-based; conditions: Mycobacterium tuberculosis; read-out: Mtb MIC95
So basically: is MIC under 1 µg/mL? Then fulfilled. Not under? Then not fulfilled.

Molecule: CC(C)CCOc1ccc(NC(=S)NC2C3CC4CC(C3)CC2C4)cc1 (stereo not shown) [Ad-2-ISO]
Target desc: Mtb mc^28247 pMV261
Class: not fulfilled
--
Molecule: CC(C)CCOc1ccc(NC(=S)NC23CC4CC(CC(C4)C2)C3)cc1 [Ad-1-ISO]
Target desc: Mtb mc^28247 pMV261
Class: not fulfilled
--
Molecule: NNC(=O)c1ccncc1 [INH, isoniazid]
Target desc: Mtb mc^28247 pMV261
Class: fulfilled
--
Molecule: CC[C@@H](CO)NCCN[C@@H](CC)CO [EMB, Ethambutol]
Target desc: Mtb mc^28247 pMV261
Class: not fulfilled
--
Molecule: CC(C)=CCC/C(C)=C/CNCCNC1C2CC3CC(C2)CC1C3 (stereo not shown) [SQ109]
Target desc: Mtb mc^28247 pMV261
Class: fulfilled
--
Molecule: CC(C)CCOc1ccc(NC(=S)Nc2ccc(OCCC(C)C)cc2)cc1 [ISO, 4,4′-diisoamyloxydiphenylthiourea]
Target desc: Mtb mc^28247 pMV261
Class: fulfilled
--
Molecule: CC(=O)NC[C@H]1CN(c2ccc(N3CCOCC3)c(F)c2)C(=O)O1 [LZD, linezolid]
Target desc: Mtb mc^28247 pMV261
Class: fulfilled
